Where these numbers come from: ChEMBL document CHEMBL1125687

Recorded logP, one value per entry.
Test: Partition coefficient (logP)
Type: physicochemical
Details: octanol/water
Form: value (number only, do not type unit).

Suppose we examine the compound COCCC1CN(c2cccc(C(F)(F)F)c2)NC1=O (centres undefined) ; what logP value has been reported? 1.41

Further cases:
I am curious: what logP value has been reported for CCOCCC1CN(c2ccccc2)NC1=O (centres undefined) ? 1.06

Consider the compound shown here: O=C1CCCN(c2ccccc2)N1 What is its recorded logP? 1.45

Consider the compound shown here: COCC1(C)CN(c2ccccc2)NC1=O (centres undefined) What is its recorded logP? 1.41

Please give the measured logP for this compound: O=C1CCN(c2ccccc2)N1 [PHENIDONE] 0.893

# logP lookup, item CCSC1CN(c2ccccc2)NC1=O (centres undefined) 2.5

Which logP is reported for this compound? O=C1NN(c2ccccc2)CC1SCc1ccccc1 (centres undefined) 3.63

Please report the recorded logP for O=C1NN(c2ccccc2)CC1Cc1cccs1 (centres undefined) . 2.48

Recorded logP for COCC1CN(c2ccccc2)NC1=O (centres undefined) , please? 0.891
